Listing of recorded relative viability by entry.
Tested on: NCI-H727
measurement protocol: relative viability (nuclei count vs DMSO), 5 days (fraction); higher = more cells survive
particulars: first compound 0.2 µM

// known answers, use as guide
With NCI-H727 as the test system, COCC1(CO)C(=O)C2CCN1CC2 (stereo not given) [PRIMA-1MET] + Cc1cc(Nc2cc(N3CCN(C)CC3)nc(Sc3ccc(NC(=O)C4CC4)cc3)n2)n[nH]1 [Tozasertib] (partner 0.1 µM) showed relative viability of 0.549

With NCI-H727 as the test system, COCC1(CO)C(=O)C2CCN1CC2 (stereo not given) [PRIMA-1MET] + N=C(N)NC(=N)NCCc1ccccc1 [Phenformin] (partner 250 µM) showed relative viability of 0.472

With NCI-H727 as the test system, COCC1(CO)C(=O)C2CCN1CC2 (stereo not given) [PRIMA-1MET] + O=C(CCCCCCC(=O)Nc1ccccc1)NO [Vorinostat] (partner 1 µM) showed relative viability of 0.732

With NCI-H727 as the test system, COCC1(CO)C(=O)C2CCN1CC2 (stereo not given) [PRIMA-1MET] + C[C@]1(O)C[C@@H](c2nc(-c3ccc4ccc(-c5ccccc5)nc4c3)c3c(N)nccn32)C1 [Linsitinib] (partner 1 µM) showed relative viability of 0.386

Attention now turns to another entry.
With NCI-H727 as the test system, COCC1(CO)C(=O)C2CCN1CC2 (stereo not given) [PRIMA-1MET] + Cc1nc(NC(=O)N2CCC[C@H]2C(N)=O)sc1-c1ccnc(C(C)(C)C(F)(F)F)c1 [Alpelisib] (partner 2 µM) showed relative viability of 0.592

====

System: HARA
measurement protocol: relative viability (nuclei count vs DMSO), 5 days (fraction); higher = more cells survive
particulars: first compound 0.8 µM
attribute measured: relative viability
Reply: number alone, nothing else.

With HARA as the test system, COc1nc(C)cnc1NS(=O)(=O)c1cccnc1-c1ccc(-c2nnco2)cc1 [Zibotentan] + NC(=O)Nc1cc(-c2cccc(F)c2)sc1C(=O)N[C@H]1CCCNC1 [AZD7762] (partner 0.2 µM) showed relative viability of 0.302

With HARA as the test system, O=c1cc(-c2cccc3c2Sc2ccccc2S3)oc(N2CCOCC2)c1 + CC(=O)Nc1cccc(-n2c(=O)n(C3CC3)c(=O)c3c(Nc4ccc(I)cc4F)n(C)c(=O)c(C)c32)c1 [Trametinib] (partner 0.02 µM) showed relative viability of 0.537

Attention now turns to another entry.
With HARA as the test system, COc1nc(C)cnc1NS(=O)(=O)c1cccnc1-c1ccc(-c2nnco2)cc1 [Zibotentan] + CS(=O)(=O)N1CCN(Cc2cc3nc(-c4cccc5[nH]ncc45)nc(N4CCOCC4)c3s2)CC1 [Pictilisib] (partner 1 µM) showed relative viability of 0.351

====

Listing of recorded relative viability by entry.
System: NCI-H1437
measurement protocol: relative viability (nuclei count vs DMSO), 5 days (fraction); higher = more cells survive
particulars: first compound 0.08 µM
Reply: number alone, nothing else.

Record O=c1cc(-c2cccc3c2Sc2ccccc2S3)oc(N2CCOCC2)c1 + COc1cc2c(Oc3ccc(NC(=O)C4(C(=O)Nc5ccc(F)cc5)CC4)cc3F)ccnc2cc1OCCCN1CCOCC1 [Foretinib] (partner 0.25 µM) , field relative viability: 1.27

Record O=c1cc(-c2cccc3c2Sc2ccccc2S3)oc(N2CCOCC2)c1 + CC(=O)Nc1cccc(-n2c(=O)n(C3CC3)c(=O)c3c(Nc4ccc(I)cc4F)n(C)c(=O)c(C)c32)c1 [Trametinib] (partner 0.02 µM) , field relative viability: 0.47

Attention now turns to another entry.
Record O=c1cc(-c2cccc3c2Sc2ccccc2S3)oc(N2CCOCC2)c1 + Cc1nc(Nc2ncc(C(=O)Nc3c(C)cccc3Cl)s2)cc(N2CCN(CCO)CC2)n1 [Dasatinib] (partner 0.075 µM) , field relative viability: 0.435
